Origin of values: ChEMBL document CHEMBL1150195

System: KB
test-method-notes: Cytotoxicity against human KB cells
Assay type: functional, cell-based
experimental-endpoint: IC50
Don't forget the unit after the number, please.

Lookup result for CO[C@@H]1C[C@@H](O)C[C@@H](O)[C@H](C)[C@@H]([C@@H](C)[C@@H](O)[C@@H](C)CC[C@H]2C[C@H](OC)C[C@H](C)O2)OC(=O)/C=C/C(C)=C/C[C@H](O)C[C@@H]2C=CC[C@H](C[C@H](OC)[C@@H](C)[C@@H](O)C[C@@H](O)[C@H](C)[C@@H]([C@@H](C)[C@@H](O)[C@@H](C)CC[C@H]3C[C@H](OC)C[C@H](C)O3)OC(=O)/C=C/C(C)=C/C[C@H](O)C[C@@H]3CCC[C@H](C1)O3)O2 [SWINHOLIDE B] ; measured IC50: 0.04 mg/L
